src = paper PMC3903617

TARGET OR SYSTEM: T1, monocyte chemo-attractant protein-1 (MCP-1) (Homo sapiens (Human)., UniProt P13500)
T1 construct: MCP-1 (monocyte chemo-attractant protein-1), chemokine; synthetic gene optimised for E. coli in pET26b; Probably the mature human chemokine, as in PDB 2BDN; also called monocyte chemotactic protein-1; antigen; source: E. coli Rosetta2 (DE3), purified (Ni-NTA, SEC)
MEASUREMENT NOTES: SPR; Biacore T200; MCP-1 immobilised on a CM5 chip by amine coupling (~220 RU), scFv injected at 30 µl/min; PBS with 0.005% Tween-20; 25°C; global fit, 1:1 Langmuir model; KD from koff/kon
TEST CONDITIONS: both partners purified
pKd: −log10 of the molar value.
The reader will find reported pKd values listed item by item below.
MEASURE: pKd

11K2 scFv mutein H-N28Q (scFv, V domains shown, PDB 2BDN heavy chain) with the stated change; PDB 2BDN light chain)) VH: EVQLQQSGAELVKAGASVKLSCPASGLQIKDTYMHWVKQRPEQGLEWIGRIDPANGNTKFDPKFQGKATITADTSSNTAYLQLSSLTSEDTAVYYCARGVFGFFDYWGQGTTLTVSS VL: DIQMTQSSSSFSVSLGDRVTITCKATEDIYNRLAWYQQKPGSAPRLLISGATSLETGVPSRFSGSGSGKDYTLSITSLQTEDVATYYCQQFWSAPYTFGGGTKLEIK	8.07
11K2 scFv mutein H-L27K (scFv, V domains shown, PDB 2BDN heavy chain) with the stated change; PDB 2BDN light chain)) VH: EVQLQQSGAELVKAGASVKLSCPASGKNIKDTYMHWVKQRPEQGLEWIGRIDPANGNTKFDPKFQGKATITADTSSNTAYLQLSSLTSEDTAVYYCARGVFGFFDYWGQGTTLTVSS VL: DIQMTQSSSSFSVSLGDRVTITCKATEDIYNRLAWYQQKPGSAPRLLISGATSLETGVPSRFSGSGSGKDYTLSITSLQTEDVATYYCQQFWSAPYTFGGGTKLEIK	8.46
wild-type 11K2 scFv (scFv, V domains shown, VH of antibody 11K2; also the variable domain of the heavy chain of the 11K2 Fab in PDB 2BDN; linker of the scFv; VL of antibody 11K2; also the variable domain of the light chain of the 11K2 Fab in PDB 2BDN; also called WT; scFv 11K2) VH: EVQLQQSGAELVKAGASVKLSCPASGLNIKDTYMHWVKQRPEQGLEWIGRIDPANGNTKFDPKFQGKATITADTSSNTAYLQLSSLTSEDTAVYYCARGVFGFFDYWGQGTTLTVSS VL: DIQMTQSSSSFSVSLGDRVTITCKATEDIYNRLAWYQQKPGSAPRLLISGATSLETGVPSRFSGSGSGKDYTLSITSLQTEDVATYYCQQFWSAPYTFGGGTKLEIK	9.10
